Assign TGI to each entry below.
System: PC-3 prostate
Test: NCI tumour cell line growth inhibition, 48 h

For the compound shown here, Cc1ccc2nc3ccccc3c(NCc3ccc(Cl)cc3)c2c1 , give the reported TGI.
8.9 µM

Query CO/N=C(\COc1ccc2c(=O)c3ccccc3oc2c1)c1ccccc1 next
> 100 µM

Query O=C(CCN1CCCC1)Nc1ccc2c(NCc3ccccc3)c3ccccc3nc2c1 next
2.03 µM

Query O=S(=O)(NC1CCCCC1)c1ccc2c(c1)OCCOCCOCCOCCO2 next
> 100 µM

Query O=c1[nH]nc(-c2ccccc2)n1/N=C/c1ccc([N+](=O)[O-])o1 next
> 30.3 µM

Value source: PubChem BioAssay (NCI)
